Target desc: UniProtKB P49773
Sequence (P49773 whole entry): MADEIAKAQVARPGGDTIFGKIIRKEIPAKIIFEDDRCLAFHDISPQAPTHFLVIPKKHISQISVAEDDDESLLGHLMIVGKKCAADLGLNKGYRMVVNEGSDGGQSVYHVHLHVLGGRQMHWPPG
Test method notes: Isothermal titration calorimetry (ITC) of hHint1-ligand complexes
Assay type: binding
Condition context: ITC, 20° C., hHint1
Result type: pKd
By convention, pKd is the negative base-10 log of a molar concentration.

INSERT INTO measurements (molecule, quantitative_readout) VALUES
  ('CCCC(=O)NS(=O)(=O)OC[C@H]1O[C@@H](n2cnc3c(=O)[nH]c(N)nc32)C(O)C1O (stereo partly drawn)', 5.54),
  ('Nc1nc2c(ncn2[C@@H]2O[C@H](CNS(=O)(=O)NC(=O)CCc3c[nH]c4ccccc34)C(O)C2O)c(=O)[nH]1 (stereo partly drawn)', 6.04);

Now for a further molecule.
// pKd value for Nc1nc2c(ncn2C2OC(COS(=O)(=O)NC(=O)CCc3c[nH]c4ccccc34)C(O)C2O)c(=O)[nH]1 (single isomer, unassigned) : 6.09
